# System: c-Src;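 also: 11-residue human phosphosite peptides and single-mutation variants displayed on the E. coli surface, counted by deep sequencing, each peptide's frequency after selection divided by its frequency in the unselected input library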;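 also: frequency after pTyr selection over input frequency; kinase dosed for 20-30% of maximal phosphorylation in three min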
# test_description: phosphorylation enrichment, bacterial display (enrichment ratio); higher = better substrate or ligand; peptides without Tyr show the background
Would you kindly list phosphorylation enrichment for each of these sequences?
Numbers only.

Field: example entries. Status: answers known.
[[record]]
ordered_residues = "PKSWNYELPAT [PROM1_Y34_A31S]"
measured_property = "phosphorylation enrichment"
observed = 0.448

[[record]]
ordered_residues = "PDDPDYSLVDD [PSTPIP2_Y323_N322D]"
measured_property = "phosphorylation enrichment"
observed = 0.648


Now consider the entry below.
Give reported phosphorylation enrichment value for AGGTRYRYVSQ [UCN3_Y95_R91G]
0.507

Reference source for all entries: the supplement of paper PMC10065799
